System: UACC-62
assay-info: NCI tumour cell line growth inhibition, 48 h
The source made the active and inactive calls. No stated cut-off is given here; in the data, active = GI50 up to about 1.1 µM and inactive = higher.
Below, each entry is listed alongside its reported GI50.

Consider the worked cases shown below.
{"columns": ["compound", "experimental-value"],
 "data": [
  ["O=C(NC(=O)c1cc(-c2ccccc2)n[nH]1)c1ccccc1", "> 100 µM (inactive)"],
  ["NC(=O)N/N=C(/CC1C(=O)Oc2ccccc21)c1ccccc1O (stereo not given)", "19.1 µM (inactive)"],
  ["O=C1Nc2ccccc2/C1=N/Nc1ncccc1[N+](=O)[O-]", "10.6 µM (inactive)"],
  ["COC(=O)c1ccccc1NC(=O)C(=O)CC(=O)c1ccccc1NC1=CC(=O)C(=O)c2ccccc21", "8.87 µM (inactive)"],
  ["O=C(O)C1=NN(c2ccc(S(=O)(=O)O)cc2)C2(C1)C(Cl)C(=O)N2c1nc2ccccc2s1 (stereo not given)", "14.4 µM (inactive)"],
  ["COc1cc(Nc2nc3ccccc3n3cccc23)cc(OC)c1OC", "> 100 µM (inactive)"],
  ["COc1ccc(NC(=O)/C(=N/NC(N)=S)C2C(=O)NC(=S)NC2=O)c(OC)c1", "> 100 µM (inactive)"],
  ["CC(=O)NNc1nc(-c2ccc([N+](=O)[O-])cc2)c(C#N)c(=O)n1C", "66.8 µM (inactive)"],
  ["OC(c1cc(-c2ccccc2)nc2c1ccc1ccccc12)C1CCCCN1 (stereo not given)", "1.85 µM (inactive)"]
]}

Consider now this further compound.
*Q* Requested read-out GI50, target or system UACC-62, entry c1ccc2c(NCCCCCCCCNc3c4ccccc4nc4ccccc34)c3ccccc3nc2c1
*A* 0.684 µM (active)
